test: qHTS assay to identify small molecule antagonists of the androgen receptor (AR) signaling pathway using the MDA cell line - cell viability counter screen (AID 743041; note: nearly all actives have a fitted effect of over 45% in size); conditions: MDA-kb2 viability, CellTiter-Fluor, 16 h, cells co-treated with R1881 androgen agonist; series mostly up to 70.3 µM
Results filed as inconclusive are left out. The source made the active and inactive calls. Calls come from the whole dose curve; as a rule, active = well fitted cell-killing curve with a large enough effect in the repeat runs; inconclusive = weak or mixed curves, or effect the other way; inactive = flat fitted curve, though single readings scatter.
Possible outcomes: active, inactive

COMPOUND	ASSIGNED_CLASS
CCCCC(=O)O[C@]1(C(=O)CO)[C@@H](C)C[C@H]2[C@@H]3CCC4=CC(=O)C=C[C@]4(C)[C@@]3(F)[C@@H](O)C[C@@]21C	inactive
CC1CC(=O)NN=C1c1ccc(NCC(C)(C)NCC(O)COc2cc(Cl)ccc2C#N)cc1 (stereo not drawn)	inactive
Brc1cc(-c2ccc(Br)c(Br)c2Br)cc(Br)c1Br	inactive
N#C[C@@H]1C[C@@H]2C[C@@H]2N1C(=O)[C@@H](N)C12CC3CC(CC(O)(C3)C1)C2	inactive
C[Si]1(C)O[Si](C)(C)O[Si](C)(C)O1	inactive
CCCCCCCCCCCC[N+](C)(C)CCCS(=O)(=O)[O-]	inactive
CO[C@H]1O[C@H](CO)[C@@H](O)[C@H](O)[C@H]1O	inactive
C[C@@H]1C[C@H]2[C@@H]3CCC4=CC(=O)C=C[C@]4(C)[C@@]3(F)[C@@H](O)C[C@]2(C)[C@@]1(O)C(=O)CO	inactive
CCCCC(CC)CNCC(CC)CCCC (stereo not drawn)	inactive
O=C(N[C@@H](c1ccccc1)[C@@H]1CCCCN1)c1cccc(C(F)(F)F)c1Cl	active
CC1=C(/C=C/C(C)=C\C=C\C(C)=C\C(=O)O)C(C)(C)CCC1	inactive
C=C(C)C(=O)OCCOC(=O)CC(C)=O	inactive
CCCCCCCCCCCCCCCCBr	inactive
CCC(C(=O)OCCOCCN(CC)CC)c1ccccc1 (stereo not drawn)	inactive
CCCCCCCC/C=C\CCCCCCCC(=O)OC	inactive
CC(=O)Oc1ccc(C(=C2CCCCC2)c2ccc(OC(C)=O)cc2)cc1	inactive
OCC1CC=CCC1 (stereo not drawn)	inactive
CCOC(=O)CC(=O)C(=O)OCC	inactive
COc1ccc(CCC(=O)c2c(O)cc(O[C@@H]3O[C@H](CO)[C@@H](O)[C@H](O)[C@H]3O[C@@H]3O[C@@H](C)[C@H](O)[C@@H](O)[C@H]3O)cc2O)cc1O	inactive
CC(=N\O)/C(C)=N/O	inactive
CCCCC(CC)COC(=O)COc1ccc(Cl)cc1C (stereo not drawn)	inactive
C[C@]12CCC(=O)C=C1C=C[C@@H]1[C@@H]2CC[C@@]2(C)[C@H]1CC[C@@]21CCC(=O)O1	inactive
O=C(CCCN1CCN(c2ccc(F)cc2)CC1)NC1c2ccccc2CSc2ccccc21 (stereo not drawn)	inactive
Nc1nc(Cl)nc2c1ncn2[C@@H]1O[C@H](CO)[C@@H](O)[C@@H]1F	inactive
CCCCC(CC)C(=O)OCCOCCOCCOCCOC(=O)C(CC)CCCC (stereo not drawn)	inactive
CCOC(=O)/C=C/C(=O)O	inactive
CCCCOC(=O)CCS	inactive
CC(=O)[C@H]1CC[C@H]2[C@@H]3C=CC4=CC(=O)CC[C@@]4(C)[C@@H]3CC[C@]12C	inactive
CC1CC(O)CC(C)(C)C1 (stereo not drawn)	inactive
CCCCCCCC/C=C\CCCCCCCC(=O)OC(CO)CO	inactive
CC1(C)O[C@@H]2C[C@H]3[C@@H]4CCC5=CC(=O)C=C[C@]5(C)[C@H]4[C@@H](O)C[C@]3(C)[C@]2(C(=O)CO)O1	inactive
Cc1cc(OI)c(C(C)C)cc1-c1cc(C(C)C)c(OI)cc1C	inactive
CC(C)CCCCCCOC(=O)CCCCC(=O)OCCCCCCC(C)C	inactive
Fc1c(F)c(F)c(Br)c(F)c1F	inactive
O=C(CCCCCCCCC#CI)Oc1ccccc1	inactive
CCn1cc(C(=O)O)c(=O)c2cc(F)c(N3CCNCC3)nc21	inactive
CCCOCCOCCO	inactive
O=C(O)Cc1ccc(-c2ccccc2)cc1	inactive
COCc1c(C(C)C)nc(C(C)C)c(/C=C/[C@@H](O)C[C@@H](O)CC(=O)O)c1-c1ccc(F)cc1	inactive
O=C1NCCN1	inactive
O=C(OCCOCCO)c1ccccc1Nc1cccc(C(F)(F)F)c1	inactive
CCC(C(=O)OCCN(CC)CC)c1ccccc1 (stereo not drawn)	inactive
CC(C)(C)C(=O)C(Oc1ccc(Cl)cc1)n1ccnc1 (stereo not drawn)	inactive
CC(CCc1ccc2c(c1)OCO2)NN (stereo not drawn)	inactive
CC#N	inactive
CCCC1C(CC)=CC(CC)=CN1c1ccccc1 (stereo not drawn)	active
c1ccc(COCc2ccccc2)cc1	inactive
CCOC(=O)c1ccccc1C	inactive

###

Target: Glucocorticoid receptor (Homo sapiens) (UniProt P04150)
Sequence (P04150 whole entry, looked up): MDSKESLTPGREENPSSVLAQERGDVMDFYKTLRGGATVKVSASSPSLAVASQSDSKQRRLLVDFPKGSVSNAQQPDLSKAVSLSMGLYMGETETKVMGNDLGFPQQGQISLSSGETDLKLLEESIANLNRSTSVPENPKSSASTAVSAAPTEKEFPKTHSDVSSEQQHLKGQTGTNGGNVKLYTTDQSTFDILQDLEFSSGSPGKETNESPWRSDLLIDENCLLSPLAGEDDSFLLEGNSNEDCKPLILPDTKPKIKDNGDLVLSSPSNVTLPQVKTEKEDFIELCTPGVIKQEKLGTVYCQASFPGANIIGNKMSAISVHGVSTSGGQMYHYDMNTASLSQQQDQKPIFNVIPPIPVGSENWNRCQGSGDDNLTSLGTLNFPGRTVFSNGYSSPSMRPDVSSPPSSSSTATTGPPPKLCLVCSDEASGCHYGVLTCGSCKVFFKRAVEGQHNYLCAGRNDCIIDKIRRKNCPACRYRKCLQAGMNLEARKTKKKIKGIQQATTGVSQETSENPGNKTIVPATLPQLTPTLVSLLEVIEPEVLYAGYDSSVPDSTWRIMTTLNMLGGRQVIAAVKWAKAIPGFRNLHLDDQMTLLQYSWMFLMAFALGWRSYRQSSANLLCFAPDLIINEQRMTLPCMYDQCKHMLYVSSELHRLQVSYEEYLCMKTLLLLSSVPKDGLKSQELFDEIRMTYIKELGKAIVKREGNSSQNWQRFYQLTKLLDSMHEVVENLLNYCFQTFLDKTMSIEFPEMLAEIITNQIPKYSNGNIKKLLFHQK
Assay: qHTS assay to identify small molecule antagonists of the glucocorticoid receptor (GR) signaling pathway (AID 720692)
Conditions: GR-bla HeLa, beta-lactamase FRET ratio, dexamethasone-stimulated, 18 h; series mostly up to 58.5 µM
Source text: U.S. Tox21 Program National Center for Advancing Translational Sciences [NCATS] NIH Chemical Genomics Center [NCGC] U.S. Environmental Protection Agency [EPA] National Institutes of Environmental Health Sciences [NIEHS] National Toxicology Program [NTP] U.S. Food and Drug Administration [FDA] […] The activation of the reporter gene under culture conditions can be detected by fluorescence intensity. […]
Inconclusive results are not listed. Calls of active or inactive are those of the source. Calls come from the whole dose curve; as a rule, active = well fitted inhibition curve with a large enough effect in the signal ratio in the repeat runs (not every such curve was filed as active); inconclusive = weak or mixed curves, or effect the other way; inactive = no such curve, though single readings can be large or run the other way; the % refers to the signal ratio.
Possible outcomes: active, inactive

COMPOUND	ASSIGNED_CLASS
CN1CCN(c2c(F)cc3c(=O)c(C(=O)O)cn4c3c2OCN4C)CC1	inactive
COCC(O)CO (configuration not stated)	inactive
NCC1CCCC(CN)C1 (configuration not stated)	inactive
COCCOC(=O)C1=C(C)NC(C)=C(C(=O)OC/C=C/c2ccccc2)C1c1cccc([N+](=O)[O-])c1 (configuration not stated)	active
CC(Cl)C(Cl)Cl (configuration not stated)	inactive
Cc1oncc1C(=O)Nc1ccc(C(F)(F)F)cc1	inactive
CC1CC(=O)NN=C1c1ccc(NCC(C)(C)NCC(O)COc2cc(Cl)ccc2C#N)cc1 (configuration not stated)	inactive
CC(=O)[C@H]1CC[C@H]2[C@@H]3C=CC4=CC(=O)CC[C@@]4(C)[C@@H]3CC[C@]12C	active
CCC(C(=O)OCCOCCN(CC)CC)c1ccccc1 (configuration not stated)	inactive
CCCOC(=O)c1ccc(C(=O)OCCC)nc1	inactive
CCOc1cc(N)c(Cl)cc1C(=O)NCC1CN(Cc2ccc(F)cc2)CCO1 (configuration not stated)	inactive
CC(N)CN (configuration not stated)	inactive

###

assay: qHTS RealTime-Glo MT Cell Viability Assay in HEK293 cells - 24 hour (AID 1224886); conditions: RealTime-Glo luminescence; series mostly up to 76.8 µM; note: nearly all actives have a fitted effect of over 50% in size
Results filed as inconclusive are left out. Calls of active or inactive are those of the source. Calls come from the whole dose curve; as a rule, active = well fitted cell-killing curve with a large enough effect in the repeat runs; inconclusive = weak or mixed curves, or effect the other way; inactive = flat fitted curve, though single readings scatter.
Possible outcomes: label 1 = active, label 0 = inactive

COMPOUND	ASSIGNED_CLASS
CC1(C)O[C@@H]2C[C@H]3[C@@H]4CCC5=CC(=O)C=C[C@]5(C)[C@H]4[C@@H](O)C[C@]3(C)[C@]2(C(=O)CO)O1	label 0
CCCCCCCCCCOS(=O)(=O)O	label 0
C=CC(C)(O)CCCC(C)CCCC(C)CCCC(C)C (stereo not drawn)	label 0
CCCCCCCCCOC(C)=O	label 0
COc1cc2c(cc1OC)-c1cc(=Nc3c(C)cc(C)cc3C)n(C)c(=O)n1CC2	label 0
O=C(/C=C/c1ccccc1)OCCCc1ccccc1	label 0
O=S1OCCO1	label 0
CC(=O)Oc1ccc(C(=C2CCCCC2)c2ccc(OC(C)=O)cc2)cc1	label 0
CCCCN(CCCC)CCCOC(=O)c1ccc(N)cc1	label 0
ON(Cc1ccccc1)Cc1ccccc1	label 0
CCC(C(=O)OCCOCCN(CC)CC)c1ccccc1 (stereo not drawn)	label 0
CCCOc1ccc(S(=O)(=O)N2CCN(CC)CC2)cc1-c1nc2c(CC)n(Cc3ccccn3)nc2c(=O)[nH]1	label 0
CCCCCCCCCCCC(=O)[O][Sn]([CH2]CCC)([CH2]CCC)[O]C(=O)CCCCCCCCCCC	label 1
O=C(CCCN1CCN(c2ccc(F)cc2)CC1)NC1c2ccccc2CSc2ccccc21 (stereo not drawn)	label 1
COCC(O)CO (stereo not drawn)	label 0
C[Si]1(C)O[Si](C)(C)O[Si](C)(C)O1	label 0
CC1=CC(O)CC(C)(C)C1 (stereo not drawn)	label 0
CCCCC/C(=C\c1ccccc1)CO	label 0
CCCCCCOC(=O)C(C)C	label 0
CCC(C(=O)OCCN(CC)CC)c1ccccc1 (stereo not drawn)	label 0
Cc1ccc(Nc2nccc(N(C)c3ccc4c(C)n(C)nc4c3)n2)cc1S(N)(=O)=O	label 1
O=[N+]([O-])c1cccc(S(=O)(=O)NCCNS(=O)(=O)c2cccc([N+](=O)[O-])c2)c1	label 0
Cc1ccc(S)cc1	label 0
CNC(=O)N(c1ccccc1)c1ccccc1	label 0
C=CCNc1nc(NCC=C)nc(N2CCN(C(c3ccc(F)cc3)c3ccc(F)cc3)CC2)n1	label 0
CCC(=O)OC/C=C/c1ccccc1	label 0
Fc1c(F)c(F)c(Br)c(F)c1F	label 0
CN1Cc2cc(C(=O)N3CCC(C4CCNCC4)CC3)ccc2N[C@@H](CC(=O)O)C1=O	label 0
CC(C)OCC1CO1 (stereo not drawn)	label 0
CCOC(=O)c1ccccc1OC	label 0
COC(=O)c1cc(S(N)(=O)=O)ccc1OC	label 0
COCCOC(=O)C1=C(C)NC(C)=C(C(=O)OC/C=C/c2ccccc2)C1c1cccc([N+](=O)[O-])c1 (stereo not drawn)	label 0
CCc1c2c(nc3ccc(OC(=O)N4CCC(N5CCCCC5)CC4)cc13)-c1cc3c(c(=O)n1C2)COC(=O)[C@]3(O)CC	label 1
CCn1cc(C(=O)O)c(=O)c2cc(F)c(N3CCNCC3)nc21	label 0
Oc1ccc(Nc2ccccc2)cc1	label 1
Nc1nc(Cl)nc2c1ncn2[C@@H]1O[C@H](CO)[C@@H](O)[C@@H]1F	label 1
CCCCCCCCCCCC[N+](C)(C)CCCS(=O)(=O)[O-]	label 0
CCCCCCCCCCCC[N+](C)(C)CC(=O)[O-]	label 0
CCCC1C(CC)=CC(CC)=CN1c1ccccc1 (stereo not drawn)	label 1
CCc1cccc(N(C)C(N)=Nc2cccc3ccccc23)c1	label 0
Cc1oc(C)c(C(=O)Nc2ccccc2)c1C	label 1
CCC(C)(C)C1CCC(O)CC1 (stereo not drawn)	label 0
Cc1cc(C(=C2C=CC(=Nc3ccc(S(=O)(=O)O)cc3S(=O)(=O)O)C=C2)c2ccc(Nc3ccc(S(=O)(=O)O)cc3)cc2)ccc1N	label 0
O=C(c1ccc(O)cc1)c1ccc(Cl)cc1	label 1
CSc1ccc(Oc2ccc(S(N)(=O)=O)cc2CN(C)C)cc1C	label 1
NC(=O)N(O)[C@@H]1C=C[C@H](Oc2cccc(Oc3ccc(F)cc3)c2)C1	label 1
Fc1ccccc1[C@@H](F)COC1CCC(Nc2ncnc3[nH]ncc23)CC1 (stereo partly drawn)	label 1
Cc1ccc(/C=N/n2c(-c3ccccc3)csc2=S)cc1	label 0
